The reader will find reported MIC50 values listed item by item below.
- Tested on: C. tropicalis ATCC 750
- MEASUREMENT_PROTOCOL: Antifungal susceptibility, broth dilution MIC (CLSI M27-A2)
- Type: cell-based, Candida tropicalis
- TEST_PARAMETERS: Candida tropicalis, ATCC750; C. tropicalis ATCC 750; broth dilution, RPMI 1640 with MOPS, 48 hours; read-out: Activity against organisms (MIC50) Ct01
REPORTED_PROPERTY: MIC50 (µg/mL)

* COc1ccc(/C=C/C(=O)c2ccc(OCc3cn(CC(O)(Cn4cncn4)c4ccc(F)cc4F)nn3)cc2)cc1 (stereo not shown) | 2
* C=C=CCOc1ccc(/C=C/C(=O)/C=C/c2ccc(OCc3cn(CC(O)(Cn4cncn4)c4ccc(F)cc4F)nn3)cc2)cc1 (stereo not shown) | 1
* OC(Cn1cncn1)(Cn1cc(COc2ccccc2)nn1)c1ccc(F)cc1F (stereo not shown) | 2
* CCCCCN1CCN(c2ccc(C(=O)/C=C/c3ccc(OCc4cn(CC(O)(Cn5cncn5)c5ccc(F)cc5F)nn4)cc3)cc2)CC1 (stereo not shown) | 2
* Cc1ccc(/C=C/C(=O)c2ccc(OCc3cn(CC(O)(Cn4cncn4)c4ccc(F)cc4F)nn3)cc2)cc1 (stereo not shown) | 2
* CCCC/C=C/c1ccc(OCc2cn(CC(O)(Cn3cncn3)c3ccc(F)cc3F)nn2)cc1 (stereo not shown) | 1
* O=C(/C=C/c1ccccc1)c1ccc(OCc2cn(CC(O)(Cn3cncn3)c3ccc(F)cc3F)nn2)cc1 (stereo not shown) | 1
* O=C(/C=C/c1ccc(OCc2cn(CC(O)(Cn3cncn3)c3ccc(F)cc3F)nn2)cc1)c1ccc(F)cc1 (stereo not shown) | 2
* Cc1ccc(OCc2cn(CC(O)(Cn3cncn3)c3ccc(F)cc3F)nn2)cc1 (stereo not shown) | 0.5
* CC/C=C/c1ccc(OCc2cn(CC(O)(Cn3cncn3)c3ccc(F)cc3F)nn2)cc1 (stereo not shown) | 0.25
* COc1ccc(C(=O)/C=C/c2ccc(OCc3cn(CC(O)(Cn4cncn4)c4ccc(F)cc4F)nn3)cc2)cc1 (stereo not shown) | 1
* COc1ccc(CN2CCN(c3ccc(C(=O)/C=C/c4ccc(OCc5cn(CC(O)(Cn6cncn6)c6ccc(F)cc6F)nn5)cc4)cc3)CC2)cc1 (stereo not shown) | 0.5
* O=C(/C=C/c1ccc(OCc2cn(CC(O)(Cn3cncn3)c3ccc(F)cc3F)nn2)cc1)c1ccc(OCC(O)(Cn2cncn2)c2ccc(F)cc2F)cc1 (stereo not shown) | 1
* OC(Cn1cncn1)(Cn1cncn1)c1ccc(F)cc1F [Fluconazole, reference compound] | 1
* CCCN1CCN(c2ccc(C(=O)/C=C/c3ccc(OCc4cn(CC(O)(Cn5cncn5)c5ccc(F)cc5F)nn4)cc3)cc2)CC1 (stereo not shown) | 0.5
* O=C(/C=C/c1cccs1)c1ccc(OCc2cn(CC(O)(Cn3cncn3)c3ccc(F)cc3F)nn2)cc1 (stereo not shown) | 1
* O=C(/C=C/c1ccc(OCc2cn(CC(O)(Cn3cncn3)c3ccc(F)cc3F)nn2)cc1)C1CC1 (stereo not shown) | 2
* O=Cc1ccc(OCc2cn(CC(O)(Cn3cncn3)c3ccc(F)cc3F)nn2)cc1 (stereo not shown) | 2
* CC(=O)c1ccc(OCc2cn(CC(O)(Cn3cncn3)c3ccc(F)cc3F)nn2)cc1 (stereo not shown) | 4
* Cc1cc(C#N)c(N)c(C#N)c1-c1ccc(OCc2cn(CC(O)(Cn3cncn3)c3ccc(F)cc3F)nn2)cc1 (stereo not shown) | 2

src = patent US9540350B2
